Numbers sourced from patent US8017602B2.

Give β2 Int Act for every item shown.
- ASSAYED TARGET: Adrenergic β2 (Homo sapiens)
- Construct: Adherent H292 cells were removed from tissue culture flasks; endogenous in cells; host or cells: H292 cells
- Sequence (P07550 whole entry): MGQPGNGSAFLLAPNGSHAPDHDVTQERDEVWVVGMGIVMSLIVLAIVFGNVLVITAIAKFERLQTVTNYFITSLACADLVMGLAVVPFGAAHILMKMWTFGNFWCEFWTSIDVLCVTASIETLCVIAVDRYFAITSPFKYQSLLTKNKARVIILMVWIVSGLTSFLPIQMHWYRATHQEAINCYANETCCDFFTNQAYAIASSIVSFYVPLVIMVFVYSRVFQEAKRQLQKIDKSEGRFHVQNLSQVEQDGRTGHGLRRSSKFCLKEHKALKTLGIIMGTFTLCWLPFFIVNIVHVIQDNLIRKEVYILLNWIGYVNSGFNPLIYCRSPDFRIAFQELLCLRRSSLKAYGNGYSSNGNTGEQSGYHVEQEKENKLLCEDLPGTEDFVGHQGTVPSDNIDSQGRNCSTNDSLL
- TEST NAME: Adrenergic β2 mediated cAMP production in H292 cells (AlphaScreen cAMP detection)
- Format: cell-based
- EXPERIMENTAL PARAMETERS: Intrinsic Activity, fraction relative to the maximum activity determined for formoterol
Structures can show the parent of a compound that is named as a salt.
Give bare numbers.

Known results for molecules:
• CCn1cc(-c2cccc(CCOCCC(=O)N(CCNCCc3ccc(O)c4c3OCC(=O)N4)C3CCCC3)c2)cn1 [Example 24, Trifluoroacetic Acid Salt] = 0.95
• Cc1c(-c2cccc(CCOCCC(=O)N(CCNCCc3ccc(O)c4c3OCC(=O)N4)C3CCCCC3)c2)cnn1C [Example 37, Trifluoroacetic Acid Salt] = 0.85

Report β2 Int Act for each item below.
1. CC(C)n1cc(-c2cccc(CCOCCC(=O)N(CCNCCc3ccc(O)c4c3OCC(=O)N4)C3CCCC3)c2)cn1 [Example 22, Trifluoroacetic Acid Salt]
2. CCn1cc(-c2cccc(CCOCCC(=O)N(CCNCCc3ccc(O)c4c3OCC(=O)N4)C3CCCCC3)c2)cn1 [Example 28]
3. COCCn1cc(-c2cccc(CCOCCC(=O)N(CCNCCc3ccc(O)c4c3OCC(=O)N4)C3CCCCC3)c2)cn1 [Example 36, Trifluoroacetic Acid Salt]
4. CCCn1cc(-c2cccc(CCOCCC(=O)N(CCNCCc3ccc(O)c4c3OCC(=O)N4)C3CCCC3)c2)cn1 [Example 18, Trifluoroacetic Acid Salt]

OUTPUT:
[0.90, 0.90, 1.05, 0.97]

Report β2 Int Act for each item below.
1. C[C@@H](N(CCNCCc1ccc(O)c2c1OCC(=O)N2)C(=O)CCOCCc1cccc(-c2cnn(C)c2)c1)C(C)(C)C [Example 26, Trifluoroacetic Acid Salt]
2. CC(C)[C@@H](C)N(CCNCCc1ccc(O)c2c1OCC(=O)N2)C(=O)CCOCCc1cccc(-c2cnn(C(C)C)c2)c1 [Example 20, Trifluoroacetic Acid Salt]
3. CCn1ccnc1-c1cccc(CCOCCC(=O)N(CCNCCc2ccc(O)c3c2OCC(=O)N3)C2CCCCC2)c1 [Example 29, Trifluoroacetic Acid Salt]
4. CCn1cc(-c2cccc(CCOCCC(=O)N(CCNCCc3ccc(O)c4c3OCC(=O)N4)[C@H](C)C(C)C)c2)cn1 [Example 23, Trifluoroacetic Acid Salt]
5. CCC[C@@H](C)N(CCNCCc1ccc(O)c2c1OCC(=O)N2)C(=O)CCOCCc1cccc(-c2cnn(C(C)C)c2)c1 [Example 21, Trifluoroacetic Acid Salt]

OUTPUT:
1. 0.88
2. 1.00
3. 0.90
4. 0.98
5. 1.00

----------
Give IC50 for every item shown.
- ASSAYED TARGET: recombinant human α1D receptor (Homo sapiens, UniProt P25100)
- Construct: expressed in transfected cells; host or cells: HEK293
- Sequence (P25100 whole entry): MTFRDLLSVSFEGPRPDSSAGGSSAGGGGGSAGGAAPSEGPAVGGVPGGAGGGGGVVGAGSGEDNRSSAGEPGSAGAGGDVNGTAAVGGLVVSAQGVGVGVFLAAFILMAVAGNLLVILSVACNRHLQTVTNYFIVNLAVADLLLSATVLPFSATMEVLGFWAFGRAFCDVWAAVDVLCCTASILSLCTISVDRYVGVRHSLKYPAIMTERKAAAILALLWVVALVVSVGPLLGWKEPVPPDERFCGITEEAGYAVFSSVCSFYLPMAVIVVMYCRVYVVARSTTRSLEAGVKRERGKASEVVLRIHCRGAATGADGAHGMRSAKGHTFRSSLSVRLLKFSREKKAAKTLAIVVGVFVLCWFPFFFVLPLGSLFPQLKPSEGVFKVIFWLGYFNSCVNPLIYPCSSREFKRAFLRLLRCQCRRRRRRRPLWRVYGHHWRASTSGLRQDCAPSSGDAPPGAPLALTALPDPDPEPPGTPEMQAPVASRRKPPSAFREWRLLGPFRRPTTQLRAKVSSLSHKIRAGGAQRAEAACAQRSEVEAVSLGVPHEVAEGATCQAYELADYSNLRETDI
- TEST NAME: Adrenergic α1D selectivity binding assay ([3H]-prazosin)
- EXPERIMENTAL PARAMETERS: inhibition of [3H]-prazosin binding, HEK293 membranes, read-out: α1 bind pIC50 (converted)
Where a name gives a salt, the structure may show the parent alone.
Answers are plain numbers, in nM.

• Cc1c(-c2cccc(CCOCCC(=O)N(CCNCCc3ccc(O)c4c3OCC(=O)N4)C3CCCCC3)c2)cnn1C [Example 37, Trifluoroacetic Acid Salt] = 1000
• O=C1COc2c(CCNCCN(C(=O)CCOCCc3cccc(-c4cnn(CC5CC5)c4)c3)C3CCCC3)ccc(O)c2N1 [Example 19, Trifluoroacetic Acid Salt] = 1000
• CCn1cc(-c2cccc(CCOCCC(=O)N(CCNCCc3ccc(O)c4c3OCC(=O)N4)C3CCCCC3)c2)nn1 [Example 04, Trifluoroacetic Acid Salt] = 2000
• O=C1COc2c(CCNCCN(C(=O)CCOCCc3cccc(-c4c[nH]nn4)c3)C3CCCCC3)ccc(O)c2N1 [Example 14, Trifluoroacetic Acid Salt] = 1000

Report IC50 for each item below.
1. CCn1ccnc1-c1cccc(CCOCCC(=O)N(CCNCCc2ccc(O)c3c2OCC(=O)N3)C2CCCCC2)c1 [Example 29, Trifluoroacetic Acid Salt]
2. Cc1nc(-c2cccc(CCOCCC(=O)N(CCNCCc3ccc(O)c4c3OCC(=O)N4)C3CCCCC3)c2)no1 [Example 27, Trifluoroacetic Acid Salt]
3. Cn1cc(-c2cc(F)cc(CCOCCC(=O)N(CCNCCc3ccc(O)c4c3OCC(=O)N4)C3CCCCC3)c2)cn1 [Example 17, Trifluoroacetic Acid Salt]

OUTPUT:
1580
1000
501

Report IC50 for each item below.
1. O=C1COc2c(CCNCCN(C(=O)CCOCCc3cccc(-c4cnco4)c3)C3CCCCC3)ccc(O)c2N1 [Example 10, Trifluoroacetic Acid Salt]
2. CC(C)n1cc(-c2cccc(CCOCCC(=O)N(CCNCCc3ccc(O)c4c3OCC(=O)N4)C3CCCCC3)c2)nn1 [Example 12, Trifluoroacetic Acid Salt]
3. CCn1cc(-c2cccc(CCOCCC(=O)N(CCNCCc3ccc(O)c4c3OCC(=O)N4)[C@H](C)C(C)C)c2)cn1 [Example 23, Trifluoroacetic Acid Salt]
4. Cn1cc(-c2cccc(CCOCCC(=O)N(CCNCCc3ccc(O)c4c3OCC(=O)N4)C3CCCCCC3)c2)cn1 [Example 31, Trifluoroacetic Acid Salt]

OUTPUT:
1: 316; 2: 1580; 3: 794; 4: 398

Documented IC50 of C[C@@H](N(CCNCCc1ccc(O)c2c1OCC(=O)N2)C(=O)CCOCCc1cccc(-c2cnn(C)c2)c1)C(C)(C)C [Example 26, Trifluoroacetic Acid Salt] : 501
